system: normal male SD rats; test: Plasma Ca^2+ level of rats after single oral administration; type: in vivo; details: rat, mean of six animals, 2 hr after single oral dose 30 μmol/kg; vehicle 10% cyclodextrin (** 1% sodium-CMC)
Task for the reader: assign each of the following compounds its reported Plasma Ca^2+ (mmol/l) 2 hr.
Numbers only, in mmol/L.

Below: 4 compounds and their reported Plasma Ca^2+ (mmol/l) 2 hr.
compound: C[C@@H](NCCCSc1ccc(C(F)(F)F)cc1)c1cccc2ccccc12 [Compound K-2240]
Plasma Ca^2+ (mmol/l) 2 hr / mmol/L: 1.272
--
compound: Cc1ccc(CN(Cc2ccc(C)cc2)C(=O)CCN[C@H](C)c2cccc3ccccc23)cc1 [Compound K-2300]
Plasma Ca^2+ (mmol/l) 2 hr / mmol/L: 1.158
--
compound: C[C@@H](NCCCCCCSc1ccc(Cl)cc1)c1cccc2ccccc12 [Compound K-2286]
Plasma Ca^2+ (mmol/l) 2 hr / mmol/L: 1.218
--
compound: C[C@@H](NCCCCSc1ccc(F)cc1)c1cccc2ccccc12 [Compound K-2263]
Plasma Ca^2+ (mmol/l) 2 hr / mmol/L: 1.237

Provide each entry's Plasma Ca^2+ (mmol/l) 2 hr from the list below.
1. COc1ccc(CN(Cc2ccc(C(F)(F)F)cc2)C(=O)CCN[C@H](C)c2cccc3ccccc23)cc1 [Compound K-2290]
2. C[C@@H](NCCC(=O)N(Cc1ccc(Cl)cc1)Cc1ccccc1Cl)c1cccc2ccccc12 [Compound K-2262]
3. COc1ccc(CN(Cc2ccc(OC)cc2)C(=O)CCN[C@H](C)c2cccc3ccccc23)cc1 [Compound K-2270]
4. C[C@@H](NCCCCCSc1cc(Cl)ccc1Cl)c1cccc2ccccc12 [Compound K-2296]

Solution:
1.248
1.260
1.238
1.195

----------
Biological target: human calcium receptor (Homo sapiens)
Sequence (P41180 20-1078): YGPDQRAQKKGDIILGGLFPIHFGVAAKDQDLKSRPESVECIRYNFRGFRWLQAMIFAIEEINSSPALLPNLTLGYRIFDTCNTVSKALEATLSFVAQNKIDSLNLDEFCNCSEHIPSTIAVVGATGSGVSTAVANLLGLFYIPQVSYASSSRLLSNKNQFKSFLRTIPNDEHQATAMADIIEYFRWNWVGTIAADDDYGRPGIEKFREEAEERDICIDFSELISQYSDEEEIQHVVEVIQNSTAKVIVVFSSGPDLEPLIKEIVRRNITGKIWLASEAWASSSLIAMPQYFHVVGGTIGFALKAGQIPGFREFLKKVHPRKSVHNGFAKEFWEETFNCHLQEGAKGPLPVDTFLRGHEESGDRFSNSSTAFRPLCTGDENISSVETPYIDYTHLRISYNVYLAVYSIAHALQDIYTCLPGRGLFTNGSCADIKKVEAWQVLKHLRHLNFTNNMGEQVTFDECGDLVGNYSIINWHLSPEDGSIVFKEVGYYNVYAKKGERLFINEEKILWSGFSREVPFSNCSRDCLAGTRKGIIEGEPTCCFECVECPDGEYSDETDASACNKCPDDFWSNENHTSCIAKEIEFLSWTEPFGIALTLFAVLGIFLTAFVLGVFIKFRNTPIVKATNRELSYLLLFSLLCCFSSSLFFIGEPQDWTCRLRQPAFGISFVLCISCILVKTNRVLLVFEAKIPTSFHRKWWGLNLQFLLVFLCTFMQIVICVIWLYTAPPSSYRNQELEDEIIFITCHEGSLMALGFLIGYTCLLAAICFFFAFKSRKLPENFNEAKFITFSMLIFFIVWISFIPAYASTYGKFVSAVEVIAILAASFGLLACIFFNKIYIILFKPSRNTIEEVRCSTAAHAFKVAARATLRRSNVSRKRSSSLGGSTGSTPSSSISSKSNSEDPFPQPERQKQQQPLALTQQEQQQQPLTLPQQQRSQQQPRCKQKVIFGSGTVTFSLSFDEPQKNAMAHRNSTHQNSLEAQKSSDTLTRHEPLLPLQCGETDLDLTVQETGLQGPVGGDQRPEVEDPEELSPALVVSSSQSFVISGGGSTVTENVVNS
Test: Activity on calcium receptors: fluo-3 fluorescence in HEK293 cells transfected with human calcium receptor gene
Settings: HEK293 cells transfected with plasmid pHuPCaR4.0 (human calcium receptor gene), loaded with fluo-3; 1 mM CaCl2, 1 mM MgCl2
Task for the reader: assign each of the following compounds its reported pEC50.
Answers are plain numbers, as −log10 of the molar value.

compound: COc1ccc(CN(Cc2ccc(Cl)cc2)C(=O)CCN[C@H](C)c2cccc3ccccc23)cc1
target: human calcium receptor (Homo sapiens)
pEC50: 7.13
//
compound: C[C@@H](NCCCSc1ccc(C(F)(F)F)cc1)c1cccc2ccccc12
target: human calcium receptor (Homo sapiens)
pEC50: 6.44
//
compound: COc1cccc(C(C)NCCCCSc2ccc([N+](=O)[O-])cc2)c1 (centres unmarked)
target: human calcium receptor (Homo sapiens)
pEC50: 6.46
//
compound: C[C@@H](NCCCCSc1cc(Cl)ccc1Cl)c1cccc2ccccc12
target: human calcium receptor (Homo sapiens)
pEC50: 6.47
//
compound: C[C@@H](NCCC(=O)N(Cc1ccccc1)Cc1ccc(Cl)c(Cl)c1)c1cccc2ccccc12
target: human calcium receptor (Homo sapiens)
pEC50: 7.12

Provide each entry's pEC50 from the list below.
1. C[C@@H](NCCCCCSc1c(F)c(F)c(C(F)(F)F)c(F)c1F)c1cccc2ccccc12
2. COc1cccc(C(C)NCCCCCOc2ccc(Br)cc2)c1 (centres unmarked)
3. C[C@@H](NCCC(=O)N(Cc1ccc(OC(F)(F)F)cc1)Cc1ccc(Cl)c(Cl)c1)c1cccc2ccccc12

Solution:
6.44
6.37
7.28

# credit: patent US7816408B2
